Measured Absorption capacity of individual entries
- Experimental Protocol: NO absorption by ILs, gravimetric method
- Format: physicochemical
- Condition Label: 30°C until full absorption

[
  {
    "Compound": "CCn1cc[n+](C)c1.NCS(=O)(=O)[O-] [[EMIm][AMS]]",
    "Absorption capacity": "1.38 mol NO per mol of IL"
  },
  {
    "Compound": "CCn1cc[n+](C)c1.NCCCS(=O)(=O)[O-] [[EMIm][APS]]",
    "Absorption capacity": "2.79 mol NO per mol of IL"
  },
  {
    "Compound": "C[N+](C)(C)CCO.NCCC(=O)[O-] [[Ch][APA]]",
    "Absorption capacity": "1.70 mol NO per mol of IL"
  },
  {
    "Compound": "C1CCC2=NCCCN2CC1.NCCS(=O)(=O)O [[DBU][Tau]]",
    "Absorption capacity": "2.79 mol NO per mol of IL"
  },
  {
    "Compound": "CCn1cc[n+](C)c1.NCCC(=O)[O-] [[EMIm][APA]]",
    "Absorption capacity": "2.11 mol NO per mol of IL"
  },
  {
    "Compound": "C[N+](C)(CCO)CCO.NCCS(=O)(=O)[O-] [[HEMN][Tau]]",
    "Absorption capacity": "2.51 mol NO per mol of IL"
  },
  {
    "Compound": "C[N+](C)(C)CCO.NCCS(=O)(=O)[O-] [[Ch][Tau]]",
    "Absorption capacity": "1.67 mol NO per mol of IL"
  },
  {
    "Compound": "CCn1cc[n+](C)c1.NCCS(=O)(=O)[O-] [[EMIm][Tau]]",
    "Absorption capacity": "2.28 mol NO per mol of IL"
  },
  {
    "Compound": "CCCCCCCCCCCCCC[P+](CCCCCC)(CCCCCC)CCCCCC.NCCS(=O)(=O)[O-] [[P66614][Tau]]",
    "Absorption capacity": "3.33 mol NO per mol of IL"
  }
]
